# System: Hu apoAI transgenic mice
# measurement_description: Evaluation of triglyceride and cholesterol levels in Hu apoAI transgenic mice
# Type: in vivo
# run_conditions: Mus musculus, 168 h; 30 mg/kg daily oral gavage for 7 days, serum 3 hours after dosing on day 7; read-out: % Triglyceride Decrease (serum, over mice receiving vehicle)
Label Criterion met when inhibition in vivo at 30 mg/kg is at or above 50%; otherwise label Criterion not met.

As a guide, the following entries are already answered.
CCCc1cc(OCCc2nc(-c3ccc(-c4ccccc4)cc3)oc2C)ccc1OC(C)(C)C(=O)O : Criterion not met
Cc1sc(-c2cccc(-c3ccccc3)c2)nc1CCOc1ccc(OC(C)(C)C(=O)O)cc1 : Criterion not met
Cc1oc(-c2ccc(-c3ccccc3)cc2)nc1CCOc1ccc(OC(C)(C)C(=O)O)c2c1CCCC2 : Criterion met
Cc1oc(-c2ccc(-c3cccc4ccccc34)cc2)nc1CCOc1ccc(OC(C)(C)C(=O)O)cc1 : Criterion not met
CCCCc1cc(OC(C)(C)C(=O)O)ccc1OCCc1nc(-c2ccc(-c3ccccc3)cc2)oc1C : Criterion met

Test whether the compound `Cc1oc(-c2cccc(-c3ccccc3)c2)nc1CCOc1ccc(OC(C)(C)C(=O)O)c2c1CCCC2` records inhibition in vivo at 30 mg/kg of 50% or higher.
Criterion not met

Input `Cc1oc(-c2ccc(-c3ccccc3C(F)(F)F)cc2)nc1CCOc1ccc(OC(C)(C)C(=O)O)cc1`
Criterion not met

====

# subject_of_test: huPPARα (Homo sapiens)
# Sequence (Q07869 1-468): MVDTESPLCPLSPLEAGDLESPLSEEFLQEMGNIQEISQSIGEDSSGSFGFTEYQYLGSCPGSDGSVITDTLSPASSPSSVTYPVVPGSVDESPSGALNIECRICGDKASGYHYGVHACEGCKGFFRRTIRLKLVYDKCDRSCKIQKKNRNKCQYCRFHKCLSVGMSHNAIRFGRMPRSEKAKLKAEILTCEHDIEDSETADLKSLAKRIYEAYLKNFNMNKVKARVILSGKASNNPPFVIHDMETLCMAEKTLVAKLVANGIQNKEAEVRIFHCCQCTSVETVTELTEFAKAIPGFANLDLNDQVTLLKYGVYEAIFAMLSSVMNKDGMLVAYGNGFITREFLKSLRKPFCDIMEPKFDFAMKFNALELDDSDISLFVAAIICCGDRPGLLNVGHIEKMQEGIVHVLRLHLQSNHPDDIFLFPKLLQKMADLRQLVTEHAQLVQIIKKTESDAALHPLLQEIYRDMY
# Sequence (P19793 1-462 partner): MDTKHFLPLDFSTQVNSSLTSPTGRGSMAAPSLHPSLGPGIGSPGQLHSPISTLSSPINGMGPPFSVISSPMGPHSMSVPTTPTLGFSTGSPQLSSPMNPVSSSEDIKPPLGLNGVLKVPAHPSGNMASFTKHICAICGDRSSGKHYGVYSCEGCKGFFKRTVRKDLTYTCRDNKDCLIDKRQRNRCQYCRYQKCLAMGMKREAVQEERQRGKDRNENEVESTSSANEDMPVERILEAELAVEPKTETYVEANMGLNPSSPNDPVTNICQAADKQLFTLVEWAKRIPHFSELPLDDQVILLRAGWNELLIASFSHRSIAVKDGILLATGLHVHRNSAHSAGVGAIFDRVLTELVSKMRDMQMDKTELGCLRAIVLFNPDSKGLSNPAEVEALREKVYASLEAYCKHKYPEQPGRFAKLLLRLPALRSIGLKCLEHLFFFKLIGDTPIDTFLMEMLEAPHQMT
I'd appreciate it if you could supply pIC50 values for the items below.
Give bare numbers, as −log10 of the molar value.

Consider the reported pIC50 for these molecules:
Cc1oc(-c2ccc(-c3ccccc3)cc2)nc1CCOc1cccc(OC(C)(C)C(=O)O)c1 : 7.01
Cc1oc(-c2ccc(-c3ccccc3)cc2)nc1CCSc1ccc(OC(C)(C)C(=O)O)cc1 : 6.43
Cc1oc(-c2ccc(-c3c(F)cccc3F)cc2)nc1CCOc1ccc(OC(C)(C)C(=O)O)cc1 : 6.81
Cc1sc(-c2cccc(-c3ccccc3)c2)nc1CCOc1ccc(OC(C)(C)C(=O)O)cc1 : 6.35

I would be grateful if you could provide pIC50 for each of the following entries.
1. Cc1oc(-c2ccc(-c3ccccc3F)cc2)nc1CCOc1ccc(OC(C)(C)C(=O)O)cc1
2. CCCCc1cc(OC(C)(C)C(=O)O)ccc1OCCc1nc(-c2cccc(-c3ccccc3)c2)oc1C

1: 6.32; 2: 7.33

====

Assign pIC50 to each entry below.
# subject_of_test: huPPARγ (Homo sapiens)
# Sequence (P37231 1-505): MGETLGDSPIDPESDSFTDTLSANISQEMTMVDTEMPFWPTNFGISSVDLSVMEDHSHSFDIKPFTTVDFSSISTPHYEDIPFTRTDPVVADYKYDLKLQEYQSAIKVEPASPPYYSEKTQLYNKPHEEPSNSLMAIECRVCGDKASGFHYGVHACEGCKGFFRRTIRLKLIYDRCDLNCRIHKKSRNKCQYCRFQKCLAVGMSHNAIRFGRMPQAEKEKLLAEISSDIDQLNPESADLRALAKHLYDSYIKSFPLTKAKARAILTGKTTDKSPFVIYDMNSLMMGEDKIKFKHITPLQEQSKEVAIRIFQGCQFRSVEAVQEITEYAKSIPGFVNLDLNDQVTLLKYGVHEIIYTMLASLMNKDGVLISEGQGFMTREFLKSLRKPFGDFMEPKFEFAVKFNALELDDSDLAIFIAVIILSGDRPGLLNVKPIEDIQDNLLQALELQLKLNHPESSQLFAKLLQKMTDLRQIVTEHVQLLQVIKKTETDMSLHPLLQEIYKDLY
# Sequence (P19793 1-462 partner): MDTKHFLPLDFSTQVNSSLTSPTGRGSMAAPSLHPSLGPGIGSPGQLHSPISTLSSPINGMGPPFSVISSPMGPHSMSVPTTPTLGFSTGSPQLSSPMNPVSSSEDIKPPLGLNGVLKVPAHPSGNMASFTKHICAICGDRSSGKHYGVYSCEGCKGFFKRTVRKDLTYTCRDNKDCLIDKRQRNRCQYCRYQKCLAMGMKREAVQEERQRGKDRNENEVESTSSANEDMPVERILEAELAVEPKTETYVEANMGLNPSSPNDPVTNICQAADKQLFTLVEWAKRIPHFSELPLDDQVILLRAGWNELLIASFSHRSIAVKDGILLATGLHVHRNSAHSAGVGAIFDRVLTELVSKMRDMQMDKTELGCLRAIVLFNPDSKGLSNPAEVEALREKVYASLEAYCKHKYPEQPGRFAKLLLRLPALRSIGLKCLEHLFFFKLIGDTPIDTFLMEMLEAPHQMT
One number for each entry, as −log10 of the molar value.

Below are worked cases with known answers.
Cc1oc(-c2cccc(-c3ccccc3)c2)nc1CCOc1ccc(OC(C)(C)C(=O)O)c(Cc2ccccc2)c1 : 7.62
Cc1sc(-c2cccc(-c3ccccc3)c2)nc1CCOc1ccc(OC(C)(C)C(=O)O)cc1 : 6.57

Below are 3 compounds. Give each one its pIC50.
1. Cc1oc(-c2ccc(-c3c(F)cccc3F)cc2)nc1CCOc1ccc(OC(C)(C)C(=O)O)cc1
2. Cc1oc(-c2ccc(-c3ccccc3F)cc2)nc1CCOc1ccc(OC(C)(C)C(=O)O)cc1
3. Cc1oc(-c2ccc(-c3ccccc3)cc2)nc1CCOc1ccc(OC(C)(C)C(=O)O)cc1CC1CCCCC1

6.34
6.03
6.64

====

# Test system: Hu apoAI transgenic mice
# measurement_description: Evaluation of triglyceride and cholesterol levels in Hu apoAI transgenic mice
# Assay type: in vivo
# run_conditions: Mus musculus, 168 h; 30 mg/kg daily oral gavage for 7 days, serum 3 hours after dosing on day 7; read-out: % Triglyceride Decrease (serum, over mice receiving vehicle)
For each record, write down the corresponding inhibition in vivo at 30 mg/kg.
Answers are plain numbers, in %.

Some solved entries appear below for comparison.
Cc1oc(-c2ccc(-c3ccccc3)cc2)nc1CCOc1cccc(OC(C)(C)C(=O)O)c1 [Example 21] : 60.5
Cc1oc(-c2ccc(-c3ccccc3)cc2)nc1CCOc1ccc(OC(C)(C)C(=O)O)cc1 [Example 1] : 62.2
Cc1oc(-c2ccc(-c3ccccc3)cc2)nc1CCOc1ccc(OC(C)(C)C(=O)O)c2ccccc12 [Example 48] : 43.7
Cc1oc(-c2cccc(-c3ccccc3)c2)nc1CCOc1ccc(OC(C)(C)C(=O)O)c2ccccc12 [Example 49] : 48.7

// for each molecule in input: emit inhibition in vivo at 30 mg/kg
1. Cc1oc(-c2ccc(-c3c(F)cccc3F)cc2)nc1CCOc1ccc(OC(C)(C)C(=O)O)cc1 [Example 14]
2. CCCc1cc(OCCc2nc(-c3ccc(-c4ccccc4)cc3)oc2C)ccc1OCC(=O)O [Example 62]
3. Cc1cc(OCCc2nc(-c3ccc(-c4ccccc4)cc3)oc2C)ccc1OC(C)(C)C(=O)O [Example 24]
4. Cc1oc(-c2ccc(-c3ccccc3)cc2)nc1CCOc1ccc(OC(C)(C)C(=O)O)c(-c2ccccc2)c1 [Example 38]
5. Cc1oc(-c2cccc(-c3ccccc3)c2)nc1CCOc1cccc(OC(C)(C)C(=O)O)c1 [Example 22]

1: 67.5; 2: 45.5; 3: 62.3; 4: 53.3; 5: 73.6
